molecular target: UniProt:P0DMM9; test: Sulfation of flavonoids by recombinant hSULT1A3; details: substrate inhibition constant of flavonoid sulfation; equation (2)

COMPOUND: Oc1cc(O)c2c(c1)OC(c1ccc(O)c(O)c1)C(O)C2 (single isomer, unassigned; (+)) [Catechin, (+)catechin]
Ki, µM: 8

###

molecular target: hSULT1A3 (Homo sapiens); assay: Sulfation of flavonoids by recombinant hSULT1A3; conditions: flavonoid as substrate; substrate inhibition equation (2)

COMPOUND: COc1ccc([C@@H]2CC(=O)c3c(O)cc(O)cc3O2)cc1O
Vmax (nmol/mg/min): 303

COMPOUND: O=C1C[C@@H](c2ccc(O)c(O)c2)Oc2cc(O)cc(O)c21
Vmax (nmol/mg/min): 269

COMPOUND: Oc1cc(O)c2c(c1)OC(c1ccc(O)c(O)c1)C(O)C2 (single isomer, unassigned; (+)) [Catechin, (+)catechin]
Vmax (nmol/mg/min): 342

COMPOUND: Oc1cc(O)c2c(c1)O[C@H](c1ccc(O)c(O)c1)[C@H](O)C2 [Epicatechin, (−)epicatechin]
Vmax (nmol/mg/min): 442

###

target: UniProt:P49888; assay: Inhibition of oestradiol sulfation by recombinant hSULT1E1
Sequence (P49888 whole entry): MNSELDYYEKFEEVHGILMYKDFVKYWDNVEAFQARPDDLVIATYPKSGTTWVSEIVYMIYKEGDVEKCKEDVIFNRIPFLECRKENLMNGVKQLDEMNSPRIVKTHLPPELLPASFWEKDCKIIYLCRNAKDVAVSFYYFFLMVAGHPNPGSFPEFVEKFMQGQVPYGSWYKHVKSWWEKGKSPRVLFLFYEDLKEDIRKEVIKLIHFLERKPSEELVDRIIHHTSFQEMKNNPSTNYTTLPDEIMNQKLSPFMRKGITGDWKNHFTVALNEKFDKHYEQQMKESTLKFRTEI
pIC50: −log10 of the molar value.
OBSERVED PROPERTY: pIC50

MOLECULE: COc1ccc([C@@H]2CC(=O)c3c(O)cc(O)cc3O2)cc1O [Hesperetin]
SYSTEM UNDER TEST: UniProt:P49888
MEASURED RESULT: 4.04
//
MOLECULE: O=C1C[C@@H](c2ccc(O)c(O)c2)Oc2cc(O)cc(O)c21 [Eriodictyol, eriodictyol]
SYSTEM UNDER TEST: UniProt:P49888
MEASURED RESULT: 3.17

###

biological target: hSULT1A3 (Homo sapiens); experiment: Inhibition of dopamine sulfation by recombinant hSULT1A3; assay type: biochemical; conditions: read-out: IC50, Dopamine sulfation by hSULT1A3; substrate 50 μM dopamine
pIC50: −log10 of the molar value.
OBSERVED PROPERTY: pIC50

COMPOUND: Oc1cc(O)c2c(c1)OC(c1ccc(O)c(O)c1)C(O)C2 (single isomer, unassigned; (+)) [Catechin, (+)catechin]
SYSTEM UNDER TEST: hSULT1A3 (Homo sapiens)
MEASURED RESULT: 4.08

###

Below, each of the compounds is paired with its reported pKi value.
target: hSULT1A1 (Homo sapiens, UniProt P50225); experiment: Sulfation of flavonoids by recombinant hSULT1A1; type: in vitro ADME
Sequence (P50225 whole entry): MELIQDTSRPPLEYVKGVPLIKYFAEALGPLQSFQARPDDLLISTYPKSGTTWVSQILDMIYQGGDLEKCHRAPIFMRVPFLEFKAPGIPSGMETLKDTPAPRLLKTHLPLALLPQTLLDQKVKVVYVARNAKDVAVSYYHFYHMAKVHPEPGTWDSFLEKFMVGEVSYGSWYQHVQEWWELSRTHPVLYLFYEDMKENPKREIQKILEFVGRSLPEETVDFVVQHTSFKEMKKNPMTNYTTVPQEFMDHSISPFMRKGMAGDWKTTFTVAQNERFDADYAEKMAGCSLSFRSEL
pKi: −log10 of the molar value.
OBSERVED PROPERTY: pKi

COMPOUND: COc1ccc([C@@H]2CC(=O)c3c(O)cc(O)cc3O2)cc1O [Hesperetin]
MEASURED RESULT: 5.43
//
COMPOUND: O=C1C[C@@H](c2ccc(O)c(O)c2)Oc2cc(O)cc(O)c21 [Eriodictyol, eriodictyol]
MEASURED RESULT: 5.21
//
COMPOUND: Oc1cc(O)c2c(c1)O[C@H](c1ccc(O)c(O)c1)[C@H](O)C2 [Epicatechin, (−)epicatechin]
MEASURED RESULT: 5.06

###

biological target: UniProt P50225; experiment: Inhibition of 2-naphthol sulfation by recombinant hSULT1A1; format: biochemical; conditions: read-out: IC50, 2-Naphthol sulfation, hSULT1A1; substrate 100 μM 2-naphthol
pIC50: −log10 of the molar value.

COMPOUND: Oc1cc(O)c2c(c1)OC(c1ccc(O)c(O)c1)C(O)C2 (single isomer, unassigned; (+)) [Catechin, (+)catechin]
pIC50: 5.08

###

Recorded pKi, one value per entry.
biological target: hSULT1A3 (Homo sapiens, UniProt P0DMM9); experiment: Sulfation of flavonoids by recombinant hSULT1A3
Sequence (P0DMM9 whole entry): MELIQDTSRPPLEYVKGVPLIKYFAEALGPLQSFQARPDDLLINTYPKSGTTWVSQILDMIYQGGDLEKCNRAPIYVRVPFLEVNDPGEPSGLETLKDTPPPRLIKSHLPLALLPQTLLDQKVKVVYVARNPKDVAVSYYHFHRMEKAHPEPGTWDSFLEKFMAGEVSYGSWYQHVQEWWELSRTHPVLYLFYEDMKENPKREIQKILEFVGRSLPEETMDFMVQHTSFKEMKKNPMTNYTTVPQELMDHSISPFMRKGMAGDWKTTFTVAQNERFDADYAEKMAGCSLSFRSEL
pKi: −log10 of the molar value.

COMPOUND: Oc1cc(O)c2c(c1)O[C@H](c1ccc(O)c(O)c1)[C@H](O)C2 [Epicatechin, (−)epicatechin]
SYSTEM UNDER TEST: hSULT1A3 (Homo sapiens, UniProt P0DMM9)
pKi: 5.02

COMPOUND: COc1ccc([C@@H]2CC(=O)c3c(O)cc(O)cc3O2)cc1O [Hesperetin]
SYSTEM UNDER TEST: hSULT1A3 (Homo sapiens, UniProt P0DMM9)
pKi: 5.38

COMPOUND: O=C1C[C@@H](c2ccc(O)c(O)c2)Oc2cc(O)cc(O)c21 [Eriodictyol, eriodictyol]
SYSTEM UNDER TEST: hSULT1A3 (Homo sapiens, UniProt P0DMM9)
pKi: 5.34

###

target: hSULT1A1 (Homo sapiens); experiment: Inhibition of 2-naphthol sulfation by recombinant hSULT1A1; format: biochemical
pIC50: −log10 of the molar value.
OBSERVED PROPERTY: pIC50

COMPOUND: O=C1C[C@@H](c2ccc(O)c(O)c2)Oc2cc(O)cc(O)c21
SYSTEM UNDER TEST: hSULT1A1 (Homo sapiens)
MEASURED RESULT: 4.82
//
COMPOUND: Oc1cc(O)c2c(c1)O[C@H](c1ccc(O)c(O)c1)[C@H](O)C2 [Epicatechin, (−)epicatechin]
SYSTEM UNDER TEST: hSULT1A1 (Homo sapiens)
MEASURED RESULT: 4.37
//
COMPOUND: COc1ccc([C@@H]2CC(=O)c3c(O)cc(O)cc3O2)cc1O
SYSTEM UNDER TEST: hSULT1A1 (Homo sapiens)
MEASURED RESULT: 4.63
